biological target: HLA-A*68:01; assay: IEDB peptide-MHC binding, purified MHC/competitive/radioactivity; filed as Kd, often an IC50 or EC50 that approximates it; bounds were set here for any values at or beyond the usual limits of such assays; conditions: source organism: SARS coronavirus Tor2
Entry class follows Kd: bottom: < 100 nM; middle: ≥ 100 nM and < 800 nM; top: ≥ 800 nM

>>> cat("SVKTQFNYFK")
"bottom"
>>> cat("GSFCTQLNR")
"middle"
>>> cat("TSRTLSYYK")
"top"
>>> cat("VVNARLRAK")
"top"
>>> cat("ALILAYSNK")
"top"
>>> cat("YMSALNHTK")
"bottom"
>>> cat("TVKPGNFNK")
"middle"
>>> cat("LLFADINGK")
"middle"
>>> cat("AINSVPWSK")
"top"
>>> cat("SAGFSLWIYK")
"bottom"
